Hello, the source for this data is the kinase profiling compilation of Christmann-Franck et al. (2016), in case you need it.

- target-or-test-system: SIK2 (human)
- experiment-notes: radiometric filter-binding kinase assay
- study-conditions: compound 1.0 µM
property: residual activity (%)
Give the value, in units of %, as a plain number.

Exercise: For the molecule shown here, CCNc1nc(Nc2cc(F)c(C(=O)N3CCOCC3)cc2OC)ncc1C(F)(F)F , give the reported residual activity.
Solution: 66

Exercise: For the molecule shown here, CNC(=O)C1[C@H]2O[C@@](C)([C@@H]1N)n1c3ccccc3c3c4c(c5c6ccccc6n2c5c31)C(=O)NC4 (some centres undefined) , give the reported residual activity.
Solution: 1

Exercise: For the molecule shown here, Cc1ccc(-c2ccc3c(ccc4sc5c(c43)NC[C@@H](C)NC5=O)n2)cn1 , give the reported residual activity.
Solution: 86

Exercise: For the molecule shown here, COc1cc(O)c2c(c1)[C@H]1OC1C[C@H](O)[C@H](O)C(=O)/C=C\C[C@H](C)OC2=O (some centres undefined) , give the reported residual activity.
Solution: 88
